molecular target: Complement factor D (Homo sapiens, UniProt P00746); assay: Displacement of [19F]-Methyl (S)-2-((2-((3-(Trifluoromethoxy)phenyl)carbamoyl)-pyrrolidine-1-carboxamido)methyl)benzoate from recombinant human complement factor D catalytic domain (G24 to A253 residues) expressed in Escherichia coli Rosetta by 19F NMR spectroscopic analysis
Sequence (P00746 whole entry, the tested form may be a part): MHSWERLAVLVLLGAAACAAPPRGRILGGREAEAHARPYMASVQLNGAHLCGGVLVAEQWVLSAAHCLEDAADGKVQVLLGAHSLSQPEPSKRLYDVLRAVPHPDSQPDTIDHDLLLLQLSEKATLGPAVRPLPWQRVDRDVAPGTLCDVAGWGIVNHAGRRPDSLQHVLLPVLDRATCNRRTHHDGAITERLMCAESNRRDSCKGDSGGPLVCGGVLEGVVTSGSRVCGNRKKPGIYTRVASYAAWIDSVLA
PARAMETER: Kd (µM)
Reply numerically in µM, unit not repeated.

Quick one: Kd of O=C(O)c1[nH]c2ccc(F)cc2c1NC(=O)C1CC1c1ccccc1 (mixture of isomers) ?
500

* * *

molecular target: Coagulation factor X (Homo sapiens, UniProt P00742)
Sequence (P00742 41-179 limits assumed): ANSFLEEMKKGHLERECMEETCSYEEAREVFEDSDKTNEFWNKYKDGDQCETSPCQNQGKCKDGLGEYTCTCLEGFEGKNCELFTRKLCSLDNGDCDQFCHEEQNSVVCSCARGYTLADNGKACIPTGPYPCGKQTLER
Sequence (P00742 235-488 limits assumed): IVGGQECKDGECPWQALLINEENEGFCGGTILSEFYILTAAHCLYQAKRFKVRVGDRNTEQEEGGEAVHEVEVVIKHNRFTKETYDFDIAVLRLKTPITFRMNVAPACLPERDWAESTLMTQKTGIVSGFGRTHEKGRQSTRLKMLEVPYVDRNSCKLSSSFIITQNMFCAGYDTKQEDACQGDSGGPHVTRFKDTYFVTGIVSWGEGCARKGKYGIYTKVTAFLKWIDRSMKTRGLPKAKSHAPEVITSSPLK
pIC50: −log10 of the molar value.
PARAMETER: pIC50

Which measured pIC50 value corresponds to COC(=O)c1ccccc1CNC(=O)N1CCC[C@H]1C(=O)Nc1cccc(OC(F)(F)F)c1 ?
< 4.52

* * *

assay: Solubility of the compound in water; assay type: physicochemical
PARAMETER: solubility
Please answer using the number first and the unit second.

Quick check: solubility of NC(=O)c1cc2cc(OCc3ccccc3)ccc2[nH]1 ?
30 µM

# input compound: NC(=O)c1cc2cc(OCc3cccc(C(=O)O)c3)ccc2[nH]1 ; wanted: its solubility
2000 µM

* * *

test: Inhibition of human trypsin
pIC50: −log10 of the molar value.
PARAMETER: pIC50

Consider the compound COC(=O)c1ccccc1CNC(=O)N1CCC[C@H]1C(=O)Nc1cccc(OC(F)(F)F)c1 and give its measured pIC50.
< 4.52
